Ki by entry:
Biological target: D(2) dopamine receptor (Rattus norvegicus)
Sequence (P61169 whole entry): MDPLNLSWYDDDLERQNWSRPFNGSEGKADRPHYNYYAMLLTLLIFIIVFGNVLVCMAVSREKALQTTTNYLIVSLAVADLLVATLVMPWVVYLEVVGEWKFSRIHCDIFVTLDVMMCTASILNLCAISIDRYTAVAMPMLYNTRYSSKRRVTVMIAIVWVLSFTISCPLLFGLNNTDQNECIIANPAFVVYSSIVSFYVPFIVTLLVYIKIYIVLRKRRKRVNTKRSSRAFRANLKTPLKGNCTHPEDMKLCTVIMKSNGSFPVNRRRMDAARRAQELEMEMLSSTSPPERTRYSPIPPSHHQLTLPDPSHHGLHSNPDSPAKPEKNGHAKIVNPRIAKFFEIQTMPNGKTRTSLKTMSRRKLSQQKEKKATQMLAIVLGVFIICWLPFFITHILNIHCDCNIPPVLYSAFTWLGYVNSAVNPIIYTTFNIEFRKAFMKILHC
Assay: Displacement of [3H]-spiperone from dopamine D2 receptor in rat striatum by scintillation counting method

structure_smiles	Ki
O=C(CCCc1ccccc1)O[C@H](CCCN1CCC(O)(c2ccc(Cl)cc2)CC1)c1ccc(F)cc1	> 5 µM

Turning to the following molecule.
Query string: I have this molecule here, `O=C(CCCc1ccccc1)O[C@@H](CCCN1CCC(O)(c2ccc(Cl)cc2)CC1)c1ccc(F)cc1` , and I need its recorded Ki.
Result string: > 5 µM

====

Biological target: Histone deacetylase (Rattus norvegicus) (UniProt Q6P6W3+Q99P99+Q99P96+Q4QQW4+Q99P97+Q5RJZ2+B1WBY8)
Test: Inhibition of HDAC in rat C6 cells assessed as increase in histone H3 acetylation at 5 uM after 15 hrs by flow cytometry
Type: cell-based
Calls of active or inactive are those of the source. The calls are words filed in the database; no cut-off is given here.
quantity_measured: Activity

Solved entries:
compound	meas_value
OC(CCCN1CCC(O)(c2ccc(Cl)cc2)CC1)c1ccc(F)cc1 (racemic) [HYDROXYHALOPERIDOL]	inactive
O=C(CCCc1ccccc1)O[C@@H](CCCN1CCC(O)(c2ccc(Cl)cc2)CC1)c1ccc(F)cc1	inactive
O=C(CCCc1ccccc1)O[C@H](CCCN1CCC(O)(c2ccc(Cl)cc2)CC1)c1ccc(F)cc1	inactive
O=C(O)CCCc1ccccc1	inactive

Field: next compound
Query string: Can you look up the measured Activity of O=C(CCCc1ccccc1)OC(CCCN1CCC(O)(c2ccc(Cl)cc2)CC1)c1ccc(F)cc1 (racemic) for me?
Result string: inactive
